Each recorded value in this set is attributed to paper PMC11615764.

Assay: LNP particle size and PDI by dynamic light scattering
Assay type: physicochemical
Settings: LNP: ionizable lipid/DSPC/Chol/DMG‐PEG2000 50:10:38.5:1.5, N/P 6; DLS
EXPERIMENTAL READOUT: Size (nm)
Numbers only, in nm.

The examples below pair each entry with its known result.
COMPOUND: CCCCC/C=C\C/C=C\CCCCCCCCC(CCCCCCCC/C=C\C/C=C\CCCCC)OC(=O)CCCN(C)C [DLin‐MC3‐DMA, reference compound]
Size (nm): 72.70
--
COMPOUND: CCCCCCCCCCCOC(=O)CCCCCC1(CCCCCCCC(=O)OC(CCCCCCCC)CCCCCCCC)OCC(CCCN(C)C)O1 (centres unmarked) [KEL3]
Size (nm): 98.15
--
COMPOUND: CCCCCCCCCCCOC(=O)CCCCCC1(CCCCCCCC(=O)OC(CCCCCCCC)CCCCCCCC)OCC(CCCCN(C)C)O1 (centres unmarked) [KEL4]
Size (nm): 118.1
--
COMPOUND: CCCCCCCCCCCNC(=O)CCCCCC1(CCCCCCCC(=O)NC(CCCCCCCC)CCCCCCCC)OCC(CCN(C)C)O1 (centres unmarked) [KEL9]
Size (nm): 125.0
--
COMPOUND: CCCCCCCCCCCOC(=O)CCCCCC1(CCCCCCCC(=O)OC(CCCCCCCC)CCCCCCCC)OCC(CCN(CC)C(C)C)O1 (centres unmarked) [KEL8]
Size (nm): 71.68

Answer for every listed entry: what is its Size (nm)? The entries follow.
1. CCCCCCCCCCCOC(=O)CCCCCC1(CCCCCCCC(=O)OC(CCCCCCCC)CCCCCCCC)OCC(CCN(CC)CC)O1 (centres unmarked) [KEL6]
2. CCCCCCCCCCC(=O)OCCCCCCC1(CCCCCCCCOC(=O)C(CCCCCCCC)CCCCCCCC)OCC(CCN(C)C)O1 (centres unmarked) [KEL13]
3. CCCCCCCCCCCOC(=O)CCCCCC1(CCCCCCCC(=O)OC(CCCCCCCC)CCCCCCCC)OCC(CCN(C)C)O1 (centres unmarked) [KEL2]
4. CCCCCCCCC(CCCCCCCC)OC(=O)CCCCCCCC1(CCCCCCCC(=O)OC(CCCCCCCC)CCCCCCCC)OCC(CCN(C)C)O1 (centres unmarked) [KEL10]
5. CCCCCCCCCCC(=O)OCCCCCCC1(CCCCCCCC(=O)OC(CCCCCCCC)CCCCCCCC)OCC(CCN(C)C)O1 (centres unmarked) [KEL12]
6. CCCCCCCCCCCOC(=O)CCCCCC1(CCCCCCCC(=O)OC(CCCCCCCC)CCCCCCCC)OCC(CN(C)C)O1 (centres unmarked) [KEL1]

1: 80.34; 2: 99.68; 3: 70.27; 4: 69.23; 5: 89.54; 6: 76.72
